EXPERIMENTAL SYSTEM: MRCKβ (Homo sapiens (Human), UniProt Q9Y5S2)
EXPERIMENT DESCRIPTION: MRCKβ kinase assay (IMAP fluorescence polarization)
Format: biochemical
COND: 1 μM ATP; read-out: MRCK-B Average Ki
Lab note: anything with Ki below 8 nM is marked MET; values at 8 nM or higher are marked NOT MET.

COMPOUND: CCN1CCCCC12CCCN(c1ccnc3[nH]cc(-c4ncc(C)s4)c13)C2 (stereo not shown)
EXPERIMENTAL SYSTEM: MRCKβ (Homo sapiens (Human), UniProt Q9Y5S2)
ASSIGNED LABEL: MET
--
COMPOUND: Nc1cncc(-c2c[nH]c3nccc(N4CCCCC4)c23)c1
EXPERIMENTAL SYSTEM: MRCKβ (Homo sapiens (Human), UniProt Q9Y5S2)
ASSIGNED LABEL: MET
--
COMPOUND: Cc1csc(-c2c[nH]c3nccc(N4CCCC5(CCCCN5)C4)c23)n1 (stereo not shown)
EXPERIMENTAL SYSTEM: MRCKβ (Homo sapiens (Human), UniProt Q9Y5S2)
ASSIGNED LABEL: MET
--
COMPOUND: c1cnc(-c2c[nH]c3nccc(N4CCCCC4)c23)cn1
EXPERIMENTAL SYSTEM: MRCKβ (Homo sapiens (Human), UniProt Q9Y5S2)
ASSIGNED LABEL: NOT MET
--
COMPOUND: N#Cc1c[nH]c2nccc(N3CCCC3c3ccccc3)c12 (stereo not shown)
EXPERIMENTAL SYSTEM: MRCKβ (Homo sapiens (Human), UniProt Q9Y5S2)
ASSIGNED LABEL: NOT MET
--
COMPOUND: c1cc(-c2c[nH]c3nccc(N4CC[C@]5(CCCCN5)C4)c23)ncn1
EXPERIMENTAL SYSTEM: MRCKβ (Homo sapiens (Human), UniProt Q9Y5S2)
ASSIGNED LABEL: NOT MET

---

Here the recorded pKi is given for each entry.
EXPERIMENTAL SYSTEM: ROCK2 (Homo sapiens (Human), UniProt O75116)
Sequence (O75116 whole entry): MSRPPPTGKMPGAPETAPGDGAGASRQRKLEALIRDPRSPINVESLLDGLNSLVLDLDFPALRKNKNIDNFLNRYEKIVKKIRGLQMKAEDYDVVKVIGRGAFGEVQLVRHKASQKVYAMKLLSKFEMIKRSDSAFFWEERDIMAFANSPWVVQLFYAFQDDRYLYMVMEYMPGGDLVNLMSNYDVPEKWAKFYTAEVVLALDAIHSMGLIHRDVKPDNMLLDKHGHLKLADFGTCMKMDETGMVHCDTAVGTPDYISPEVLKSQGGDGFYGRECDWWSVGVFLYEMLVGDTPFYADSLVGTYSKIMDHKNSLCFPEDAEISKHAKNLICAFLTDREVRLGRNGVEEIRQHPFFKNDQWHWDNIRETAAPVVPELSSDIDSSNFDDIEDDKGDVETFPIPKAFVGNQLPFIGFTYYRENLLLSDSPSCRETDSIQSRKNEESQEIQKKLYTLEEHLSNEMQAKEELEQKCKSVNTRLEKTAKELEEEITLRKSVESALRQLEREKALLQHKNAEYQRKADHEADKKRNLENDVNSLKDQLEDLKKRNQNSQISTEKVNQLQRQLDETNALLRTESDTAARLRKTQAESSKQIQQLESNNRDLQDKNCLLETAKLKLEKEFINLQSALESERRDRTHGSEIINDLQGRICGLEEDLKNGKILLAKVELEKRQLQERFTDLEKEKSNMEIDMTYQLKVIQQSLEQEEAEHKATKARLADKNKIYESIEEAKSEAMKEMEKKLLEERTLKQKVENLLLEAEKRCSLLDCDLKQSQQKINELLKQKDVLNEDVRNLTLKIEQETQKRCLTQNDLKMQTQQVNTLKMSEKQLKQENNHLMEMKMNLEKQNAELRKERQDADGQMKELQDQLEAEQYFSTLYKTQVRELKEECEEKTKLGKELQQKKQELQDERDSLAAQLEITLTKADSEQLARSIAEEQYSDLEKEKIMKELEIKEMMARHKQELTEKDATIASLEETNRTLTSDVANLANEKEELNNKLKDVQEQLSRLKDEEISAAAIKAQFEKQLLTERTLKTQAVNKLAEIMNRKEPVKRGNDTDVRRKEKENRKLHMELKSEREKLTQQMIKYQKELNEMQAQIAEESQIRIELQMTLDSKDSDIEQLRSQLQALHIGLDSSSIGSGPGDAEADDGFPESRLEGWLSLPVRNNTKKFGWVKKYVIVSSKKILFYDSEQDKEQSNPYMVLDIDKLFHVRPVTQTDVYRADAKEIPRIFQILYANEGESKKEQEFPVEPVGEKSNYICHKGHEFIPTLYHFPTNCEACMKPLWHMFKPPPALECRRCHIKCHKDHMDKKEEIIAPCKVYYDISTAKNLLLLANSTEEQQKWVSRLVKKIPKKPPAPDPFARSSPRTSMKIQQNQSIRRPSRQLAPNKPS
EXPERIMENT DESCRIPTION: ROCK2 kinase assay (IMAP fluorescence polarization)
Format: biochemical
COND: 1 μM ATP; read-out: ROCK2 Average Ki
pKi: −log10 of the molar value.

COMPOUND: Cc1[nH]ncc1-c1c[nH]c2nccc(N3CCC[C@H](N)C3)c12 [Example E61]
pKi: 7.17

COMPOUND: CN[C@H]1CCCN(c2ccnc3[nH]cc(-c4cnc(C)nc4)c23)C1 [Example E75]
pKi: 5.19

COMPOUND: CN[C@H]1CCCN(c2ccnc3[nH]cc(-c4cn[nH]c4)c23)C1 [Example E84]
pKi: 7.43

COMPOUND: c1ncc(-c2c[nH]c3nccc(OCC4CCCNC4)c23)cn1 (stereo not drawn) [Example E220]
pKi: 7.39

COMPOUND: CCN1CCCC[C@@]12CCCN(c1ccnc3[nH]cc(-c4ccncn4)c13)C2 [Example E207]
pKi: 8.08

COMPOUND: N#Cc1c[nH]c2nccc(N3CCC[C@@H]3CO)c12 [Example E39]
pKi: 7.06

COMPOUND: c1ncc(-c2c[nH]c3nccc(N4CCCC5(CCCCN5)C4)c23)cn1 (stereo not drawn) [Example E196]
pKi: 6.75

COMPOUND: CN[C@H]1CCCN(c2ccnc3[nH]cc(-c4ccc(F)cn4)c23)C1 [Example E51]
pKi: 5.66

COMPOUND: C[C@@H]1CCCN1c1ccnc2[nH]cc(C#N)c12 [Example E110]
pKi: 8.61
